test: NCI Yeast Anticancer Drug Screen. Data for the mlh1 rad18 strain (AID 175); conditions: S. cerevisiae mlh1 rad18 strain growth inhibition; at 50.0 µM; hits give high values
Compounds without any hit were thinned out: in the full panel of roughly 79,000, 15% have a hit.
Field: growth inhibition. Provide a value for each of the compounds that follow.
Give bare numbers, in %.

Answered cases to consult:
O=C(O)c1ccc(S(=O)(=O)c2ccccc2[N+](=O)[O-])cc1; -38.6
CC1CC2=C(C1)C(C1(C)C(=O)CC3C(C1=O)C3(C)C)C(C)C2=O (centres undefined); -44.6
CC1COCOC1c1ccc2c(c1)OCO2 (centres undefined); -15.8
CCn1c(SCC(=O)N/N=C/c2ccccc2)nc2ccccc2c1=O; -33.7
Cc1cc2oc(=O)cc(C(=O)O)c2c(=O)o1; -16.1

Parameter requested: growth inhibition. Apply to each item below.
1. CC1(C)N=C(N)N=C(N)N1c1cccc(CCC(=O)Nc2cccnc2)c1
2. C[N+]1(CCc2ccccc2)CCOCC1
3. CN(C=O)c1c(F)cc(C(=O)O)cc1F
4. CCOC(=O)C1(C(C)C)OC2(O)C3CCCN3C(=O)C(C(C)C)N2C1=O (centres undefined)

// result
1. -6.3
2. 2.8
3. 8.15
4. 17.4

Parameter requested: growth inhibition. Apply to each item below.
1. C/C(=C\C(N)=O)C(C)(C)C
2. CC(=O)C(C)(C)Cc1cc(C(C)(C)CC=O)on1
3. CC(=O)OC/C(C)=N\NS(=O)(=O)c1cc(Cl)c(Cl)cc1Cl
4. C[N+](C)(C)c1ccc(C(N)C(=O)O)cc1 (centres undefined)
5. NC(CCc1ccc2c(c1)OCO2)C(=O)O (centres undefined)
6. CS(=O)(=O)OCC1OC(n2ccc(NC(=O)c3ccccc3)nc2=O)CC1OS(C)(=O)=O (centres undefined)
7. O/N=C(\c1ccccc1)C1c2ccccc2-c2ccccc21
8. N#CC1(c2nc3ccccc3o2)C(=O)C(=O)N(C2C3CC4CC(C3)CC2C4)C(=O)C1=O (centres undefined)

// result
[-41.1, 4.95, 13.5, 2.8, 22.9, -4, -17.4, -9.35]

Parameter requested: growth inhibition. Apply to each item below.
1. CCOc1ccc(/C=C2N=C(/C=C/c3ccccc3)OC\2=O)cc1
2. CC(C)=NNS(=O)(=O)c1ccc(C)cc1
3. Cc1cc(C)c(NC(N)=S)cc1C
4. Cc1ccccc1-n1c(=O)sc2c(=O)n(-c3ccccc3)c(=S)[nH]c21
5. CC1=CC(O)CC(C)(C)C1/C=C/C(C)=C/C=C/C(C)=C/C=C/C=C(C)/C=C/C=C(C)/C=C/C1=C(C)CC(O)CC1(C)C (centres undefined)
6. CCCCCc1ccccn1
7. Cc1cccc(C(=O)OC2CCCCC2)c1

// result
3.75
-7.55
7.55
-18.9
-37.1
-11.2
0.5
